protocol: Liver microsome stability, human
Assay type: in vitro ADME
measurement-setup: human liver microsomes
endpoint-name: microsomal CLint at 3 μM (µL/min/mg)

Answered examples (3):
CN(C)C(=O)CC(F)(F)C(=O)N1N=C(c2c(-c3ccc(Cl)cc3)c3ccccc3[nH]c2=O)CC1c1ccc(Cl)cc1 (stereo not shown) | 165
CC(C)OC(=O)CC(F)(F)C(=O)N1N=C(c2c(-c3ccc(Cl)cc3)c3ccccc3[nH]c2=O)CC1c1ccc(Cl)cc1 (stereo not shown) | 173
CC(C)(C)COC(=O)CC(F)(F)C(=O)N1N=C(c2c(-c3ccc(Cl)cc3)c3ccccc3[nH]c2=O)CC1c1ccc(Cl)cc1 (stereo not shown) | 187

a = CNC(=O)CC(F)(F)C(=O)N1N=C(c2c(-c3ccc(Cl)cc3)c3ccccc3[nH]c2=O)CC1c1ccc(Cl)cc1 (stereo not shown)
b = CCOC(=O)CC(F)(F)C(=O)N1N=C(c2c(-c3ccc(Cl)cc3)c3ccccc3[nH]c2=O)CC1c1ccc(Cl)cc1 (stereo not shown)
c = O=C(CC(F)(F)C(=O)N1N=C(c2c(-c3ccc(Cl)cc3)c3ccccc3[nH]c2=O)CC1c1ccc(Cl)cc1)OCC1CC1 (stereo not shown)
# sort list by recorded microsomal CLint at 3 μM, greatest to least Answer format: the labels, ordered as requested.
c, b, a

====

protocol: Mouse plasma and brain pharmacokinetics, IP administration
Assay type: in vivo
measurement-setup: male, C57BL/6, mouse, plasma; 10 mg/kg IP; read-out: AUCINF plasma
endpoint-name: AUC(0-inf) (ng·h/mL)
Note: unit ng·h/mL is implicit; provide only the numeric part.

Lab book: AUC(0-inf) of O=C(O)CC(F)(F)C(=O)N1N=C(c2c(-c3ccc(Cl)cc3)c3ccccc3[nH]c2=O)CC1c1ccc(Cl)cc1 (stereo not shown) [2i] noted as 4550

====

tgt: GluN1/GluN2C (Rattus norvegicus, UniProt P35439+Q00961)
Sequence (Q00961 20-1237, other chains not shown): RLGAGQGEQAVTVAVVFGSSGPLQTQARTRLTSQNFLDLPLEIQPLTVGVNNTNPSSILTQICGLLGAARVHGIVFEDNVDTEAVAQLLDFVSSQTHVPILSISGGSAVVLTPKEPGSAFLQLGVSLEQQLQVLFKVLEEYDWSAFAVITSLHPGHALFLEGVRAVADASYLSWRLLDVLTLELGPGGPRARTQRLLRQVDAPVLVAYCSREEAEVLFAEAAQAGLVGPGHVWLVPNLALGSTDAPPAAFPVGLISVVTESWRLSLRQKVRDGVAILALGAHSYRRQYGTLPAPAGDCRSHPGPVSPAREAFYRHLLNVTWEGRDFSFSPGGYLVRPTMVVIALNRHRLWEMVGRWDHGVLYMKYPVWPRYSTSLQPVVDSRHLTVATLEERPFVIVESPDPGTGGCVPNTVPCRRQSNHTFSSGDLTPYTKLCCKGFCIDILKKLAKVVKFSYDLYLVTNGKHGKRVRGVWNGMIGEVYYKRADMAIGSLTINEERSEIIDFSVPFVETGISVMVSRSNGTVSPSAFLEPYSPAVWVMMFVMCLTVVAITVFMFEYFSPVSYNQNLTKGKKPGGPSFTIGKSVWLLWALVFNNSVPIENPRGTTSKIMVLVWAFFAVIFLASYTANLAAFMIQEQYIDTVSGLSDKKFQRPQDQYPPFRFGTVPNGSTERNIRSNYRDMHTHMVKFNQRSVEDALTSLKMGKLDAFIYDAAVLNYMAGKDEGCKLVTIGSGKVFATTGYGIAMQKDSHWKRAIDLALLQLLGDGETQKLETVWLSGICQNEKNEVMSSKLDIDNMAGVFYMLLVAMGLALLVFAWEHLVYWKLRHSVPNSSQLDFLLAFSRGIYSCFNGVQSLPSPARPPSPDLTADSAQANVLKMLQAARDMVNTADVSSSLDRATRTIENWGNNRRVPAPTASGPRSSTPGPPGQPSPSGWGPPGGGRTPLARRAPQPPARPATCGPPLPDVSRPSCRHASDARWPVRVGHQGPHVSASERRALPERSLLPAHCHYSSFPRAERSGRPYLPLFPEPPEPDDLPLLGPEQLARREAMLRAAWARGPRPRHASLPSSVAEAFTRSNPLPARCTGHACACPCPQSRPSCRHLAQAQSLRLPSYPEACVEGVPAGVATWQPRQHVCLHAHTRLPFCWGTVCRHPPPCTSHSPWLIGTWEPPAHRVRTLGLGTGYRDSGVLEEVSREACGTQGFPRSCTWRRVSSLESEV
protocol: Whole-cell voltage-clamp recordings, HEK cells, GluN1/GluN2C (agonist dependence)
measurement-setup: from kON and kOFF
endpoint-name: Kd (nM)
Note: unit nM is implicit; provide only the numeric part.

Lab book: Kd of O=C(O)CC(F)(F)C(=O)N1N=C(c2c(-c3ccc(Cl)cc3)c3ccccc3[nH]c2=O)CC1c1ccc(Cl)cc1 (stereo not shown) noted as 330

====

tgt: GluN1/GluN2D (Rattus norvegicus, UniProt P35439+Q62645)
Sequence (Q62645 28-1323, other chains not shown): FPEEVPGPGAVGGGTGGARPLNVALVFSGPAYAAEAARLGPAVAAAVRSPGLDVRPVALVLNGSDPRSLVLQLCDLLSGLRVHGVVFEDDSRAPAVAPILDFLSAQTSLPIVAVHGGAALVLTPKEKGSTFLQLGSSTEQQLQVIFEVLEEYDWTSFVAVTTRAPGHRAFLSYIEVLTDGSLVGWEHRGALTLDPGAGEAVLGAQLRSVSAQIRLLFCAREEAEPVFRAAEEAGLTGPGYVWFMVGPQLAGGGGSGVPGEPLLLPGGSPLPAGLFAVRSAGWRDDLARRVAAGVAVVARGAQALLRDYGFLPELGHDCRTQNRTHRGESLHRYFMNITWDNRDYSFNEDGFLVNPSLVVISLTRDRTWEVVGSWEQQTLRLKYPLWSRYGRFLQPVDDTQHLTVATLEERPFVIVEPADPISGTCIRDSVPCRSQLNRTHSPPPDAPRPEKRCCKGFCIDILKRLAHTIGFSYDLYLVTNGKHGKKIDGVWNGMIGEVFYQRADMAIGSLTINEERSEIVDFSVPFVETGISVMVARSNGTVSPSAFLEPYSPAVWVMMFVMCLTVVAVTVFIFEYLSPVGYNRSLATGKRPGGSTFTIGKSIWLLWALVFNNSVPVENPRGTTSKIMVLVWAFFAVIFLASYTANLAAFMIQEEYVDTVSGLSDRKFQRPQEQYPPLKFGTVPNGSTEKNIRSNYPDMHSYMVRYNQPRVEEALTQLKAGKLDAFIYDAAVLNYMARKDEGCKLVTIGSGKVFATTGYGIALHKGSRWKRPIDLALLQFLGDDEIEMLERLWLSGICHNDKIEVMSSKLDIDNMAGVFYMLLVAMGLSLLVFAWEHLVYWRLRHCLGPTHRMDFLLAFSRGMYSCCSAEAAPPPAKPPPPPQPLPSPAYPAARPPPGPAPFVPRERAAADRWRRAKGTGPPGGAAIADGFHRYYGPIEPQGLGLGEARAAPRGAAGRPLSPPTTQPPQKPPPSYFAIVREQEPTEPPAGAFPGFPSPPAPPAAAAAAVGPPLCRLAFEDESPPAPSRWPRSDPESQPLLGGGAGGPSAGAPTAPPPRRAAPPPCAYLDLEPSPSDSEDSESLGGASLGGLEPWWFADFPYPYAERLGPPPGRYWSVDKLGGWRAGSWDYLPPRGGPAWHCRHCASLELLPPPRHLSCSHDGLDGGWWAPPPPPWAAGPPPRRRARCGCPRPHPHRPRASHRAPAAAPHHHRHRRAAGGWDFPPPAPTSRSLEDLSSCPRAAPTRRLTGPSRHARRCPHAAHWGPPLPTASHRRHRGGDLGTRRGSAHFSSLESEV
protocol: Two-electrode voltage-clamp recordings, Xenopus laevis oocytes, GluN1/GluN2D
Format: cell-based
Design: GluN2B (NM_012574.1), GluN2C (NM_012575.3), and GluN2D (NM_022797.2) were provided by; expressed in transfected cells; host or cells: Xenopus laevis oocytes (cRNA injection)
measurement-setup: 30 μM test compound; 100 μM glutamate, 30 μM glycine; mean ± SEM; read-out: I 30 μM / I control GluN2D
endpoint-name: remaining activity at 30 µM (%)

a = O=C(CCc1nnn[nH]1)N1N=C(c2c(-c3ccc(Cl)cc3)c3ccccc3[nH]c2=O)CC1c1ccc(Cl)cc1 (stereo not shown)
b = CC(C)OC(=O)CC(F)(F)C(=O)N1N=C(c2c(-c3ccc(Cl)cc3)c3ccccc3[nH]c2=O)CC1c1ccc(Cl)cc1 (stereo not shown)
Select the item whose remaining activity at 30 µM value is smaller, choosing between a and b . Please reply using the label of the selected record.
a
(a: 2.4%, b: 92%)

P = N#CCCC(=O)N1N=C(c2c(-c3ccc(Cl)cc3)c3ccccc3[nH]c2=O)CC1c1ccc(Cl)cc1 (stereo not shown)
Q = O=C(N1N=C(c2c(-c3ccc(Cl)cc3)c3ccccc3[nH]c2=O)CC1c1ccc(Cl)cc1)C(F)(F)F (stereo not shown)
API: POST /compare with P and Q ; response names the item with higher remaining activity at 30 µM. Please reply using the label of the selected record.
Q
(Q: 86%, P: 46%)

====

protocol: Mouse plasma and brain pharmacokinetics, IV administration
Type: in vivo
measurement-setup: male, C57BL/6, mouse, plasma, intravenous, 5 mg/kg, 5 mg/kg IV; 0.25 hr (15 min); read-out: plasma concentration, Mean
endpoint-name: concentration at 0.25 h (ng/mL)
Note: unit ng/mL is implicit; provide only the numeric part.

Lab book: concentration at 0.25 h of O=C(O)CC(F)(F)C(=O)N1N=C(c2c(-c3ccc(Cl)cc3)c3ccccc3[nH]c2=O)CC1c1ccc(Cl)cc1 (stereo not shown) noted as 642

====

protocol: Mouse plasma and brain pharmacokinetics, IP administration
Assay type: in vivo
measurement-setup: male, C57BL/6, mouse, plasma, intraperitoneal, 10 mg/kg, 10 mg/kg IP; 0.5 hr; read-out: plasma concentration, Mean
endpoint-name: concentration at 0.5 h (ng/mL)
Note: unit ng/mL is implicit; provide only the numeric part.

Lab book: concentration at 0.5 h of O=C(O)CC(F)(F)C(=O)N1N=C(c2c(-c3ccc(Cl)cc3)c3ccccc3[nH]c2=O)CC1c1ccc(Cl)cc1 (stereo not shown) noted as 1870

====

tgt: GluN1/GluN2D (Rattus norvegicus, UniProt P35439+Q62645)
protocol: Two-electrode voltage-clamp recordings, Xenopus laevis oocytes, GluN1/GluN2D
Type: cell-based
Design: GluN2B (NM_012574.1), GluN2C (NM_012575.3), and GluN2D (NM_022797.2) were provided by; expressed in transfected cells; host or cells: Xenopus laevis oocytes (cRNA injection)
measurement-setup: 100 μM glutamate, 30 μM glycine; read-out: IC50 GluN2D [95% CI]
endpoint-name: IC50 (µM)

NC(=O)CC(F)(F)C(=O)N1N=C(c2c(-c3ccc(Cl)cc3)c3ccccc3[nH]c2=O)CC1c1ccc(Cl)cc1 (stereo not drawn) | 0.24

a = O=C(O)CC(F)(F)C(=O)N1N=C(c2c(-c3ccc(Cl)cc3)c3ccccc3[nH]c2=O)C[C@@H]1c1ccc(Cl)cc1 [(R)-(+)-2i]
b = O=C(O)CC(F)(F)C(=O)N1N=C(c2c(-c3ccc(Cl)cc3)c3ccccc3[nH]c2=O)CC1c1ccc(Cl)cc1 (stereo not drawn)
Select the item whose IC50 value is smaller, choosing between a and b . Please reply using the label of the selected record.
b

====

protocol: Brain homogenate tissue binding and stability (RED device)
Type: in vitro ADME, mouse
measurement-setup: C57BL/6, mouse, brain homogenate (4 times diluted), pH 7.4, mouse brain tissue binding, RED, 4 h; read-out: % Bound Mean ± SD (converted)
endpoint-name: fraction unbound at 4 h, 5 µM

I = O=C(O)CCC(=O)N1N=C(c2c(-c3ccc(Cl)cc3)c3ccccc3[nH]c2=O)CC1c1ccc(Cl)cc1 (stereo not shown)
II = NC(=O)N1c2ccccc2C=Cc2ccccc21 [Carbamazepine, reference compound]
API: POST /compare with I and II ; response names the item with higher fraction unbound at 4 h, 5 µM. Please reply using the label of the selected record.
II
(II: 0.135, I: 0.002)

====

protocol: Brain homogenate tissue binding and stability (RED device)
Format: in vitro ADME, mouse
measurement-setup: C57BL/6, pH 7.4; mouse brain tissue binding, RED, 4 h
endpoint-name: recovery at 4 h, 5 μM (%)

O=C(CC(F)(F)C(=O)N1N=C(c2c(-c3ccc(Cl)cc3)c3ccccc3[nH]c2=O)CC1c1ccc(Cl)cc1)OCC1CC1 (stereo not shown) [2n] | 29

a = NC(=O)N1c2ccccc2C=Cc2ccccc21 [Carbamazepine, reference compound]
b = O=C(CC(F)(F)C(=O)N1N=C(c2c(-c3ccc(Cl)cc3)c3ccccc3[nH]c2=O)CC1c1ccc(Cl)cc1)OCc1ccccc1 (stereo not shown) [2p]
c = O=C(O)CC(F)(F)C(=O)N1N=C(c2c(-c3ccc(Cl)cc3)c3ccccc3[nH]c2=O)CC1c1ccc(Cl)cc1 (stereo not shown) [2i]
# sort list by recorded recovery at 4 h, 5 μM, greatest to least Answer format: the labels, ordered as requested.
a, c, b
(a: 91%, c: 57%, b: 33%)

====

protocol: Mouse plasma and brain pharmacokinetics, IP administration
Format: in vivo
measurement-setup: male, C57BL/6, mouse, brain, intraperitoneal, 10 mg/kg, 10 mg/kg IP; 0.5 h; read-out: brain calculated concentration, individual (Group 1-3)
endpoint-name: concentration at 0.5 h (ng/g)
Note: unit ng/g is implicit; provide only the numeric part.

Lab book: concentration at 0.5 h of O=C(O)CC(F)(F)C(=O)N1N=C(c2c(-c3ccc(Cl)cc3)c3ccccc3[nH]c2=O)CC1c1ccc(Cl)cc1 (stereo not shown) noted as 20.6

====

Quick list: half-life at 3 μM per entry.
protocol: Plasma stability, human
Format: in vitro ADME
measurement-setup: both sexes, human plasma, incubation up to 120 min, 3 μM, read-out: plasma stability T1/2, human

O=C(CC(F)(F)C(=O)N1N=C(c2c(-c3ccc(Cl)cc3)c3ccccc3[nH]c2=O)CC1c1ccc(Cl)cc1)OCc1ccccc1 (stereo not drawn) | > 2 h
O=C(O)CC(F)(F)C(=O)N1N=C(c2c(-c3ccc(Cl)cc3)c3ccccc3[nH]c2=O)CC1c1ccc(Cl)cc1 (stereo not drawn) | > 2 h

Then this compound:
Lab book: half-life at 3 μM of CC(C)OC(=O)CC(F)(F)C(=O)N1N=C(c2c(-c3ccc(Cl)cc3)c3ccccc3[nH]c2=O)CC1c1ccc(Cl)cc1 (stereo not drawn) noted as > 2 h
